Entries and their pIC50 values follow.
test system: panel of seven human tumor cell lines; assay: Antiproliferative activity, range over panel of seven human tumor cell lines; assay type: cell-based; conditions: Homo sapiens, read-out: IC50 values, range over the cell line panel
pIC50: −log10 of the molar value.
measured.metric: pIC50

cpd.smiles: CCOc1ccc(-c2oc(C)nc2-c2cc(OC)c(OC)c(OC)c2)cc1
observed.value: 7.70 to 9.30
--
cpd.smiles: COc1cc(-c2nc(C)oc2-c2ccc(C)cc2)cc(OC)c1OC
observed.value: 6.61 to 7.60
--
cpd.smiles: COc1cc(-c2nc(C)oc2-c2ccc3ccccc3c2)cc(OC)c1OC
observed.value: 7.14 to 9.30
--
cpd.smiles: COc1ccc(-c2oc(C)nc2-c2cc(OC)c(OC)c(OC)c2)cc1F
observed.value: 8.34 to 9.46

====

test system: B16 murine melanoma cells; assay: MTT assay on B16 murine melanoma cells; type: cell-based; settings: Mus musculus
measured.metric: IC50 (nM)

compound: CCOc1ccc(-c2oc(C)nc2-c2cc(OC)c(OC)c(OC)c2)cc1 [Compound 4i]
measured.metric: IC50
value.units: nM
observed.value: 15.6

====

test system: SEM cells; assay: Antiproliferative MTT assay, SEM; type: cell-based, human; details: Homo sapiens, 72 h, mean ± SE
pIC50: −log10 of the molar value.
Quick rule for you: pIC50 at 7 or higher means criterion met, lower means criterion not met.

compound: CCOc1ccc(-c2oc(C)nc2-c2cc(OC)c(OC)c(OC)c2)cc1
subject.of.test: SEM cells
label.value: criterion met
//
compound: COc1cc(-c2nc(C)oc2-c2ccc3ccccc3c2)cc(OC)c1OC
subject.of.test: SEM cells
label.value: criterion met
//
compound: COc1ccc(-c2nc(C)sc2-c2cc(OC)c(OC)c(OC)c2)cc1 [Compound 3e, reference compound]
subject.of.test: SEM cells
label.value: criterion not met
//
compound: CCOc1ccc(-c2oc(C)nc2-c2cc(OC)c(OC)c(OC)c2)cc1Cl
subject.of.test: SEM cells
label.value: criterion met
//
compound: COc1ccc(-c2oc(C)nc2-c2cc(OC)c(OC)c(OC)c2)cc1F
subject.of.test: SEM cells
label.value: criterion met
//
compound: COc1ccc(-c2oc(C)nc2-c2cc(OC)c(OC)c(OC)c2)cc1
subject.of.test: SEM cells
label.value: criterion met
//
compound: COc1cc(-c2oc(C)nc2-c2ccc(C)cc2)cc(OC)c1OC
subject.of.test: SEM cells
label.value: criterion not met
//
compound: COc1ccc(-c2oc(C)nc2-c2cc(OC)c(OC)c(OC)c2)cc1Cl
subject.of.test: SEM cells
label.value: criterion not met
//
compound: COc1ccc(/C=C\c2cc(OC)c(OC)c(OC)c2)cc1O [CA-4, combretastatin A-4, reference compound]
subject.of.test: SEM cells
label.value: criterion met
//
compound: CCOc1ccc(-c2nc(C)oc2-c2cc(OC)c(OC)c(OC)c2)cc1
subject.of.test: SEM cells
label.value: criterion met
//
compound: COc1cc(-c2oc(C)nc2-c2ccc(F)cc2)cc(OC)c1OC
subject.of.test: SEM cells
label.value: criterion not met
//
compound: COc1cc(-c2oc(C)nc2-c2ccc(Cl)cc2)cc(OC)c1OC
subject.of.test: SEM cells
label.value: criterion not met

====

In this section we review reported melting point values for a set of molecules.

cpd.smiles: COc1cc(-c2nc(C)oc2-c2ccc(C)cc2)cc(OC)c1OC
melting point: 110 to 112 °C
--
cpd.smiles: COc1cc(-c2nc(C)oc2-c2ccc3ccccc3c2)cc(OC)c1OC
melting point: 104 to 116 °C
--
cpd.smiles: COc1ccc(-c2oc(C)nc2-c2cc(OC)c(OC)c(OC)c2)cc1
melting point: 134 to 136 °C

====

Test system: PBL not stimulated with PHA
Experiment: Cytotoxicity in resting peripheral blood lymphocytes
Type: cell-based
Settings: Homo sapiens, Lymphocyte, 72 h, MTT, mean ± SEM, read-out: IC50 PBLresting
Protocol: Peripheral blood lymphocytes (PBL) from healthy donors were obtained from human peripheral blood (leucocyte rich plasma- buffy coats) from healthy volunteers using the Lymphoprep (Fresenius KABI Norge AS) gradient density centrifugation. After extensive washing, cells were resuspended (1.0 × 10^6 cells/mL) in RPMI-1640 with 10% FBS and incubated overnight. […] Different concentrations of the test compounds were added, and viability was determined 72 h later by the MTT test. […]
pIC50: −log10 of the molar value.

cpd.smiles: CCOc1ccc(-c2nc(C)oc2-c2cc(OC)c(OC)c(OC)c2)cc1
pIC50: 4.46
//
cpd.smiles: COc1cc(-c2nc(C)oc2-c2ccc3ccccc3c2)cc(OC)c1OC
pIC50: 4.81
//
cpd.smiles: CCOc1ccc(-c2oc(C)nc2-c2cc(OC)c(OC)c(OC)c2)cc1
pIC50: 4.83

====

Test system: tubulin
Assay: Inhibition of [3H]colchicine binding to tubulin
Conditions: 1 μM drug; tubulin 1 μM, [3H]colchicine 5 μM
Procedure: To evaluate the effect of the compounds on tubulin assembly in vitro[41], varying concentrations of compounds were preincubated with 10 μM bovine brain tubulin in 0.8 M monosodium glutamate (pH adjusted to 6.6 with HCl in a 2.0 M stock solution) at 30 °C and then cooled to 0 °C. […] The capacity of the test compounds to inhibit colchicine binding to tubulin was measured as described, except that the reaction mixtures contained 1 μM tubulin, 5 μM [^3H]colchicine and 1 or 5 μM test compound.
# Lookup of reported Colchicine binding % inhibition ± S.D, 1 μM drug keyed by entry
measured.metric: Colchicine binding % inhibition ± S.D, 1 μM drug (%)

compound: CCOc1ccc(-c2oc(C)nc2-c2cc(OC)c(OC)c(OC)c2)cc1 [Compound 4i]
value.units: %
observed.value: 62

compound: COc1cc(-c2nc(C)oc2-c2ccc(C)cc2)cc(OC)c1OC [Compound 4d]
value.units: %
observed.value: 55

compound: COc1ccc(/C=C\c2cc(OC)c(OC)c(OC)c2)cc1O [CA-4, combretastatin A-4, reference compound]
value.units: %
observed.value: 93

compound: COc1ccc(-c2oc(C)nc2-c2cc(OC)c(OC)c(OC)c2)cc1F [Compound 4g]
value.units: %
observed.value: 51

compound: COc1ccc(-c2oc(C)nc2-c2cc(OC)c(OC)c(OC)c2)cc1 [Compound 4e]
value.units: %
observed.value: 47

compound: COc1cc(-c2nc(C)oc2-c2ccc3ccccc3c2)cc(OC)c1OC [Compound 4a]
value.units: %
observed.value: 47
